- targetEntity: KRas G12C (Homo sapiens, UniProt P01116, G12C)
- Construct: Biotinylated KRas (corresponding to amino acids 1-169, produced at Accelegan Inc.); biotin (biotinylated); purchased Accelegan Inc
- Sequence (P01116 1-169 isoform P01116-2 G12C): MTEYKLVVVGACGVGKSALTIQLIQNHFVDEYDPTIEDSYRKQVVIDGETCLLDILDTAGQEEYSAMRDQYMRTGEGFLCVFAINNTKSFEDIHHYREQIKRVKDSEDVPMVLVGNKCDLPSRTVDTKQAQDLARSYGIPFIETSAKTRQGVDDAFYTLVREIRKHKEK
- assayComment: KRas binding assay, TR-FRET displacement of Cy5 labelled tracer
- conditionSet: 60-minute incubation at room temperature, 1% DMSO, pH 7.5
metric: IC50 (nM)
Enter your answer as a number in nM; do not include the unit.

CCc1c(F)ccc2cc(O)cc(-c3ncc4c(N5C[C@H]6C[C@H](C(=O)n7ccc(C)n7)C[C@H]6C5)nc(OC[C@@]56CCCN5C[C@H](F)C6)nc4c3F)c12 [Example 160] = 1790
N#Cc1c(N)sc2c(F)ccc(-c3c(Cl)cc4c(N5CCC(C(=O)Oc6ccccc6)CC5)nc(OC[C@@]56CCCN5C[C@H](F)C6)nc4c3F)c12 [Example 287] = 6
Cc1ccn(C(=O)CCNc2nc(OC[C@@]34CCCN3C[C@H](F)C4)nc3c(F)c(-c4ccc(F)c5sc(N)c(C#N)c45)c(Cl)cc23)n1 [Example 177] = 2
CN(C(=O)CCCN(C)c1nc(OC[C@@]23CCCN2C[C@H](F)C3)nc2c(F)c(-c3ccc(F)c4sc(N)c(C#N)c34)c(Cl)cc12)C(=O)c1ccn(C)n1 [Example 292] = 3
Cc1ccn(C(=O)C2CCN(c3nc(OC[C@@]45CCCN4C/C(=C\F)C5)nc4c(F)c(-c5ccc(F)c6sc(N)c(C#N)c56)c(Cl)cc34)CC2)n1 [Example 135] = 9

Prompt: Given the entry CN(CCCC(=O)N(C)c1ccccn1)c1nc(OC[C@@]23CCCN2C[C@H](F)C3)nc2c(F)c(-c3ccc(F)c4sc(N)c(C#N)c34)c(Cl)cc12 [Example 200] , report its measured IC50.
Response: 2

Prompt: Given the entry N#Cc1c(N)sc2c(F)ccc(-c3c(Cl)cc4c(N5CCC(C(=O)Oc6cccnc6)CC5)nc(OC[C@@]56CCCN5C[C@H](F)C6)nc4c3F)c12 [Example 296] , report its measured IC50.
Response: 3

Prompt: Given the entry CCc1c(F)ccc2cc(O)cc(-c3ncc4c(N(C)CCCS(=O)(=O)n5ccnc5)nc(OC[C@@]56CCCN5C[C@H](F)C6)nc4c3F)c12 [Example 163] , report its measured IC50.
Response: 131

Prompt: Given the entry N#Cc1c(N)sc2c(F)ccc(-c3c(Cl)cc4c(N5CCC(C(=O)N6C7CCC6COC7)CC5)nc(OC[C@@]56CCCN5C[C@H](F)C6)nc4c3F)c12 [Example 247] , report its measured IC50.
Response: 21

Prompt: Given the entry Cc1ccn(C(=O)CCN(C)c2nc(OC[C@@]34CCCN3C[C@H](F)C4)nc3c(F)c(-c4ccc(F)c5sc(N)c(C#N)c45)c(Cl)cc23)n1 [Example 176] , report its measured IC50.
Response: 3

Prompt: Given the entry CC(C)(C)c1ccn(C(=O)C2CCCN(c3nc(OC[C@@]45CCCN4C[C@H](F)C5)nc4c(F)c(-c5ccc(F)c6sc(N)c(C#N)c56)c(Cl)cc34)CC2)n1 (stereo partly shown) [Example 220] , report its measured IC50.
Response: 209

Prompt: Given the entry Cc1ccn(C(=O)C23CCC(CN(c4nc(OC[C@@]56CCCN5C[C@H](F)C6)nc5c(F)c(-c6ccc(F)c7sc(N)c(C#N)c67)c(Cl)cc45)C2)C3)n1 (stereo partly shown) [Example 183] , report its measured IC50.
Response: 4

* * *

- targetEntity: KRas-mediated phosphorylation of ERK in A549 cells (Homo sapiens, UniProt P01116, G12S)
- Construct: pERK HTRF read-out
- Sequence (P01116 1-188 isoform P01116-2 G12S): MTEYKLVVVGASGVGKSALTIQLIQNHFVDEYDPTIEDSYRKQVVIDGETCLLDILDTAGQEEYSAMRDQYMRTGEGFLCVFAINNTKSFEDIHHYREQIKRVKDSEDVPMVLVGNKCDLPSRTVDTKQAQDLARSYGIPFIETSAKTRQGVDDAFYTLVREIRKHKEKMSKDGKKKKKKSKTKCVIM
- assayComment: Inhibition of KRas-mediated phosphorylation of ERK (HTRF), A549 cells
- Assay type: cell-based
- conditionSet: HTRF pERK, 3 h incubation
metric: log10 IC50 (log10 of the value in nM)
All values: base-10 log of IC50 in nM.

// solved cases for log10 IC50 follow
CCc1c(F)ccc2cc(O)cc(-c3ncc4c(N5CCCCC(C(=O)n6ccc(C)n6)CC5)nc(OC[C@@]56CCCN5C[C@H](F)C6)nc4c3F)c12 (stereo partly drawn) [Example 53] = 1.20
CCc1c(F)ccc2cc(O)cc(-c3ncc4c(NCC5CC(C(=O)n6ccc(C)n6)C5)nc(OC[C@@]56CCCN5C[C@H](F)C6)nc4c3F)c12 (stereo partly drawn) [Example 93] = 1.41
CCc1c(F)ccc2cc(O)cc(-c3ncc4c(N(C)CCCC(=O)N(C)C(C)=O)nc(OC[C@@]56CCCN5C[C@@]5(CC5(F)F)C6)nc4c3F)c12 [Example 293] = 1.83
CCc1c(F)ccc2cc(O)cc(-c3ncc4c(N(C)CC(C)CC(=O)N(C)C(C)=O)nc(OC[C@@]56CCCN5C[C@H](F)C6)nc4c3F)c12 (stereo partly drawn) [Example 283] = 2.85

Prompt: Given the entry Cc1ccn(C(=O)C2CCCN(c3nc(OC[C@@]45CCCN4C/C(=C\F)C5)nc4c(F)c(-c5ccc(F)c6sc(N)c(C#N)c56)c(Cl)cc34)CC2)n1 (stereo partly drawn) [Example 175] , report its measured log10 IC50.
Response: 0.78

* * *

This listing pairs compounds with measured IC50.
- targetEntity: KRas-mediated phosphorylation of ERK in A549 cells (Homo sapiens, UniProt P01116, G12S)
- Construct: pERK HTRF read-out
- assayComment: Inhibition of KRas-mediated phosphorylation of ERK (HTRF), A549 cells
- Assay type: cell-based
- conditionSet: HTRF pERK, 3 h incubation
Enter your answer as a number in nM; do not include the unit.

CCN(C(C)=O)C(=O)CCCN(C)c1nc(OC[C@@]23CCCN2C[C@H](F)C3)nc2c(F)c(-c3ccc(F)c4sc(N)c(C#N)c34)c(Cl)cc12 [Example 291] = 65
CCc1c(F)ccc2cc(O)cc(-c3ncc4c(N(C)CCN(C)C(=O)n5nccn5)nc(OC[C@@]56CCCN5C[C@H](F)C6)nc4c3F)c12 (single isomer, unassigned) [Example 207] = 6650

Here's the next entry for you.
Prompt: Given the entry Cc1ccn(C(=O)[C@@H]2C[C@H]2CNc2nc(OC[C@@]34CCCN3C[C@H](F)C4)nc3c(F)c(-c4ccc(F)c5sc(N)c(C#N)c45)c(Cl)cc23)n1 [Example 181] , report its measured IC50.
Response: 15

* * *

- targetEntity: KRas-mediated phosphorylation of ERK in A549 cells (Homo sapiens, UniProt P01116, G12S)
- Construct: pERK HTRF read-out
- assayComment: Inhibition of KRas-mediated phosphorylation of ERK (HTRF), A549 cells
- Type: cell-based
- conditionSet: HTRF pERK, 3 h incubation
metric: IC50

// solved cases for IC50 follow
N#Cc1c(N)sc2c(F)ccc(-c3c(Cl)cc4c(N5CCCC(C(=O)n6ccc(C7CC7)n6)CC5)nc(OC[C@@]56CCCN5C[C@H](F)C6)nc4c3F)c12 (stereo partly shown) = 27 nM
Cc1ccn(C(=O)[C@@H]2CCCN(c3nc(OC[C@@]45CCCN4C[C@H](F)C5)nc4c(F)c(-c5ccc(F)c6sc(N)c(C#N)c56)c(Cl)cc34)CC2)n1 (atropisomer, axis not shown; (aS)) [Example 171] = 6440 nM
CCc1c(F)ccc2cc(O)cc(N3CCc4c(nc(OC[C@@]56CCCN5C[C@H](F)C6)nc4NCCC(=O)n4ccc(C)n4)C3)c12 = 84 nM
Cc1ccccc1OC(=O)C1CCN(c2nc(OC[C@@]34CCCN3C[C@H](F)C4)nc3c(F)c(-c4ccc(F)c5sc(N)c(C#N)c45)c(Cl)cc23)CC1 = 215 nM
CN(C=O)C(=O)CCCN(C)c1nc(OC[C@@]23CCCN2C[C@H](F)C3)nc2c(F)c(-c3ccc(F)c4sc(N)c(C#N)c34)c(Cl)cc12 = 7 nM

Prompt: Given the entry CCc1c(F)ccc2cc(O)cc(-c3ncc4c(N5CCCCC(C(=O)N(C)C(C)=O)CC5)nc(OC[C@@]56CCCN5C[C@H](F)C6)nc4c3F)c12 (stereo partly shown) , report its measured IC50.
Response: 58 nM

Prompt: Given the entry CCc1c(F)ccc2cc(O)cc(-c3ncc4c(N5CCCCCC(C(=O)n6ccc(C)n6)C5)nc(OC[C@@]56CCCN5C[C@H](F)C6)nc4c3F)c12 (stereo partly shown) , report its measured IC50.
Response: 116 nM

Prompt: Given the entry `CCc1c(F)ccc2cc(O)cc(-c3ncc4c(NCCC(=O)n5ccc(C)n5)nc(OC[C@@]56CCCN5C[C@H](F)C6)nc4c3F)c12` , report its measured IC50.
Response: 38 nM

Prompt: Given the entry CCc1c(F)ccc2cc(O)cc(-c3ncc4c(N5CCC(COC)(C(=O)n6ccc(C)n6)C5)nc(OC[C@@]56CCCN5C[C@H](F)C6)nc4c3F)c12 (stereo partly shown) , report its measured IC50.
Response: 4220 nM

Prompt: Given the entry CCc1c(F)ccc2cc(O)cc(-c3ncc4c(N(C)C(C)CCC(=O)N(C)C(C)=O)nc(OC[C@@]56CCCN5C[C@H](F)C6)nc4c3F)c12 (stereo partly shown) , report its measured IC50.
Response: 185 nM

Prompt: Given the entry Cc1ccn(C(=O)C2CCCN(c3nc(OC[C@@]45CCCN4C[C@H](F)C5)nc4c(F)c(-c5c(I)ccc(N)c5C#N)c(Cl)cc34)CC2)n1 (stereo partly shown) , report its measured IC50.
Response: 495 nM

Just for reference, patent US20260356856A1 is where these values come from.
